- Method notes: chemical genetic growth profiling, strain panel (AID 1159580);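 also: tested at 20 µM; growth read once vehicle control cultures reached saturation at 30 °C; 1 = growth at the plate median or of vehicle wells; lower values mean less growth of the strain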
- Experimental conditions: S. cerevisiae deletion strains, growth OD, locus YEL037C, strain rad23, stronger effect = lower value
The whole screen tested about 5,500 compounds, of which about 2,000 (36%) were called active. Inconclusive results (about 18%) are left out. Some of the results follow.
Quick reference: normalized growth of the listed items.
Kindly provide the number alone.

Completed entries (count: 8):
COC(=O)Nc1nc2ccc(S(=O)c3ccccc3)cc2[nH]1 (configuration not stated) : 0.993
Cc1cc(O)cc(=O)o1 : 0.994
CO[C@@]12[C@@H]3NC3CN1C1=C(C(=O)C(N)=C(C)C1=O)[C@@H]2COC(N)=O (some centres not stated) : 0.975
CNC(=O)O/N=C\C(C)(C)SC : 1.01
Nc1ccc(S(=O)(=O)Nc2ccnn2-c2ccccc2)cc1 : 0.991
N#CC(O[C@@H]1O[C@H](CO[C@@H]2O[C@H](CO)[C@@H](O)[C@H](O)[C@H]2O)[C@@H](O)[C@H](O)[C@H]1O)c1ccccc1 (some centres not stated) : 0.982
COc1cccc2c1C(=O)c1c(O)c3c(c(O)c1C2=O)C[C@@](O)(C(C)=O)C[C@@H]3O[C@H]1C[C@H](N)[C@H](O)[C@H](C)O1 : 0.974
COC(=O)Nc1nc2ccc(C(=O)c3ccccc3)cc2[nH]1 : 0.981

Sample CC(=O)NC(C(=O)O)C(C)(C)SN=O (configuration not stated) — what was its normalized growth?
0.984

Sample C[C@]12CCC(=O)C=C1CCC1C2[C@@H](O)C[C@@]2(C)C1CC[C@]2(O)C(=O)CO (some centres not stated) — what was its normalized growth?
1

Sample COc1cccc2c1C(=O)c1c(O)c3c(c(O)c1C2=O)C[C@@](O)(C(=O)CO)C[C@@H]3O[C@H]1C[C@H](N)[C@@H](O)[C@H](C)O1 — what was its normalized growth?
0.991

Sample O=C(Nc1ccc(C(=O)O)c(O)c1)c1ccccc1 — what was its normalized growth?
0.992

Sample NC(N)=N/N=C/c1c(Cl)cccc1Cl — what was its normalized growth?
0.984

Sample Cc1cn([C@H]2C[C@H](N=[N+]=[N-])[C@@H](CO)O2)c(=O)[nH]c1=O — what was its normalized growth?
1

Sample FC(F)(F)c1ccccc1-n1ccnc1 — what was its normalized growth?
1

Sample Cc1cc(O)ccc1Cl — what was its normalized growth?
1.01

Sample COC(=O)C[C@H]1C(C)(C)C(=O)[C@@H]2CC3C4=CC(=O)O[C@@H](c5ccoc5)[C@]4(C)CCC3[C@@]1(C)C2=O (some centres not stated) — what was its normalized growth?
0.985

# credit: PubChem BioAssay AID1159580
